MFI ratio to WT (ΔWT) values for the binders below.
Biological target: T1, human CD28, full-length, expressed on transfected Expi293 cells (human, UniProt P10747 19-220)
T1 construct: whole, on cells
Experiment: flow cytometry, 100 nM, Expi293 cells with human CD28
Entry rule: numbers only, all in fold.

1. variant ICOSL IgV-Fc fusion N52R/N57F/Q100T (Fc fusion) DTQEKEVRAMVGSDVELSCACPEGSRFDLNDVYVYWQTSESKTVVTYHIPQRSSLEFVDSRYRNRALMSPAGMLRGDFSLRLFNVTPQDEQKFHCLVLSTSLGFQEVLSVEVTLHVAANFSVGSGGGGSEPKSSDKTHTCPPCPAPEAEGAPSVFLFPPKPKDTLMISRTPEVTCVVVDVSHEDPEVKFNWYVDGVEVHNAKTKPREEQYNSTYRVVSVLTVLHQDWLNGKEYKCKVSNKALPAPIEKTISKAKGQPREPQVYTLPPSREEMTKNQVSLTCLVKGFYPSDIAVEWESNGQPENNYKTTPPVLDSDGSFFLYSKLTVDKSRWQQGNVFSCSVMHEALHNHYTQKSLSLSPG; 5.7

## Task If you can, please state the reported MFI ratio to WT (ΔWT) value of variant ICOSL IgV-Fc fusion N52R/N57L/Q100A (Fc fusion) DTQEKEVRAMVGSDVELSCACPEGSRFDLNDVYVYWQTSESKTVVTYHIPQRSSLELVDSRYRNRALMSPAGMLRGDFSLRLFNVTPQDEQKFHCLVLSASLGFQEVLSVEVTLHVAANFSVGSGGGGSEPKSSDKTHTCPPCPAPEAEGAPSVFLFPPKPKDTLMISRTPEVTCVVVDVSHEDPEVKFNWYVDGVEVHNAKTKPREEQYNSTYRVVSVLTVLHQDWLNGKEYKCKVSNKALPAPIEKTISKAKGQPREPQVYTLPPSREEMTKNQVSLTCLVKGFYPSDIAVEWESNGQPENNYKTTPPVLDSDGSFFLYSKLTVDKSRWQQGNVFSCSVMHEALHNHYTQKSLSLSPG .
## Result 5.3
